Where these numbers come from: patent EP4631502A1

Biological target: Human adenosine A1 receptors (Homo sapiens)
Sequence (P30542 1-326): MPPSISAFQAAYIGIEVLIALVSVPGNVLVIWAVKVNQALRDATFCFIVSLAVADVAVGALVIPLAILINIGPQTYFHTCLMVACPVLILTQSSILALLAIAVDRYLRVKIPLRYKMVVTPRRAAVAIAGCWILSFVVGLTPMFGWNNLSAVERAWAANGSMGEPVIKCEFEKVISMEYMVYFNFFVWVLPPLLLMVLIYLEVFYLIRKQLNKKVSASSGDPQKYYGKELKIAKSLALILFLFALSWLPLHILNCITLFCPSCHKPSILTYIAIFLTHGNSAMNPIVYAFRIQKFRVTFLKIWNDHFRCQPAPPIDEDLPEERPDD
Assay: Adenosine A1 receptor functional assay ([35S]-GTPγS binding, assay conditions II)
Type: biochemical
Design: purchased PerkinElmer (Rodgau, Germany) ES-010-M400UA; host or cells: CHO-K1 cell membranes
Conditions: IC50 in µM agonist mode, agonist mode (effect on basal signal); 1. and 2. Measurement
reported-property: IC50

Request: Lookup: IC50 / Human adenosine A1 receptors (Homo sapiens) / COc1c(O)cc2oc(-c3ccc(O)cc3)cc(=O)c2c1O
Result: 40 µM
